Cited source: ChEMBL document CHEMBL1938296

Activity for assorted compounds
System: Rattus norvegicus
Test description: Toxicity in Brown Norway rat allergic lung inflammation model assessed as decrease in thymus weight at 10 mg/kg, po for 3 days
Assay type: organism-based
Parameters: dose 10 mg/kg, route oral; scale not given: the % may be the effect or the level left
Stated conditions: in vivo, 72 h
A number alone suffices; assume %.

> print(dat)
                                 smiles.str  endpoint.unit  observed.result
1  C[C@]12C=CC(=O)C=C1CC[C@@H]1[C@@H]2[C@@H](O)C[C@@]2(C)[C@H]1CC[C@]2(O)C(=O)CSc1ncc2ccccc2n1              %               11
2  C[C@@H]1C[C@H]2[C@@H]3CCC4=CC(=O)C=C[C@]4(C)[C@H]3[C@@H](O)C[C@]2(C)[C@@]1(O)C(=O)CSc1nc2cccnc2s1              %               75
3  C[C@]12C=CC(=O)C=C1CC[C@@H]1[C@@H]2[C@@H](O)C[C@@]2(C)[C@H]1CC[C@]2(O)C(=O)CSc1ccc2ccccc2n1              %                0
4  C[C@]12C=CC(=O)C=C1CC[C@@H]1[C@@H]2[C@@H](O)C[C@@]2(C)[C@H]1CC[C@]2(O)C(=O)CSc1nc2ccccc2s1              %               15
5  Cn1c(SCC(=O)[C@@]2(O)CC[C@H]3[C@@H]4CCC5=CC(=O)C=C[C@]5(C)[C@H]4[C@@H](O)C[C@@]32C)nc2ccccc21              %                4
6  C[C@@H]1C[C@H]2[C@@H]3CCC4=CC(=O)C=C[C@]4(C)[C@H]3[C@@H](O)C[C@]2(C)[C@@]1(O)C(=O)CSc1cnc2ccccc2n1              %               65

Fill in: Activity of C[C@@H]1C[C@H]2[C@@H]3CCC4=CC(=O)C=C[C@]4(C)[C@H]3[C@@H](O)C[C@]2(C)[C@@]1(O)C(=O)CSc1ccc2ccccc2n1 is ___
66

Now consider C[C@]12C=CC(=O)C=C1CC[C@@H]1[C@@H]2[C@@H](O)C[C@@]2(C)[C@H]1CC[C@]2(O)C(=O)CO .
53

Now consider C[C@]12C=CC(=O)C=C1CC[C@@H]1[C@@H]2[C@@H](O)C[C@@]2(C)[C@H]1CC[C@]2(O)C(=O)CSc1nc2ncccc2o1 .
9

###

Assay target: Glucocorticoid receptor (Rattus norvegicus, UniProt P06536)
Sequence (P06536 whole entry): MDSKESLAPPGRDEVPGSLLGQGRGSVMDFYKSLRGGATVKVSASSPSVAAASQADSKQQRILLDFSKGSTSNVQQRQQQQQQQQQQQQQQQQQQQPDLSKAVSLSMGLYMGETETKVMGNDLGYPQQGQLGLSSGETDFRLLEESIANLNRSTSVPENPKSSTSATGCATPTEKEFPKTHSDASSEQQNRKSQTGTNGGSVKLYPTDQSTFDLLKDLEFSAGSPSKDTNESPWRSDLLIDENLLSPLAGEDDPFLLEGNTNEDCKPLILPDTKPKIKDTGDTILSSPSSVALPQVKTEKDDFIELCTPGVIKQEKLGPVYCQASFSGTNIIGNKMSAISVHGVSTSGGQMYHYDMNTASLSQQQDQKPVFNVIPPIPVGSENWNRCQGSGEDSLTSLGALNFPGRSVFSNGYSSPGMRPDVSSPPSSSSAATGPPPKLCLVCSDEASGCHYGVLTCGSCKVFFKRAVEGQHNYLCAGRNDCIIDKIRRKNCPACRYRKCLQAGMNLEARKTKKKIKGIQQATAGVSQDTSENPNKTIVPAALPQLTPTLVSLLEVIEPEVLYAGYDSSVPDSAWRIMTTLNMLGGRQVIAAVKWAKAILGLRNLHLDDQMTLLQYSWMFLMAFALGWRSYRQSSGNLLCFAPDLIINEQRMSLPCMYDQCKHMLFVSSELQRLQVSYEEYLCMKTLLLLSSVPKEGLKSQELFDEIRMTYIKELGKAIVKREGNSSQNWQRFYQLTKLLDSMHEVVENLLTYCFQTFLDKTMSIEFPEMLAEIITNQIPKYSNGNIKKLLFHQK
Test description: Transactivation of glucocorticoid receptor in rat H42E cells assessed as induction of TAT measuring degradation of tyrosine to p-hydroxy phenyl pyruvate at 1 uM relative to prednisolone
Assay type: cell-based
Stated conditions: read-out: Efficacy
Rule: t for Emax at 1 µM not less than 8%, f for anything less.

Here are 4 compounds together with their reported answers.
> print(dat)
                                 smiles.str  class
1  C[C@]12C=CC(=O)C=C1CC[C@@H]1[C@@H]2[C@@H](O)C[C@@]2(C)[C@H]1CC[C@]2(O)C(=O)CSc1nc2ncccc2[nH]1      f
2  C[C@@H]1C[C@H]2[C@@H]3CCC4=CC(=O)C=C[C@]4(C)[C@H]3[C@@H](O)C[C@]2(C)[C@@]1(O)C(=O)CSc1cnc2ccccc2n1      f
3  C[C@]12C=CC(=O)C=C1CC[C@@H]1[C@@H]2[C@@H](O)C[C@@]2(C)[C@H]1CC[C@]2(O)C(=O)CSc1ccccn1      t
4  Cc1ccnc(SCC(=O)[C@@]2(O)CC[C@H]3[C@@H]4CCC5=CC(=O)C=C[C@]5(C)[C@H]4[C@@H](O)C[C@@]32C)n1      f

Quick check, Emax at 1 µM >= 8%? C[C@@H]1C[C@H]2[C@@H]3CCC4=CC(=O)C=C[C@]4(C)[C@H]3[C@@H](O)C[C@]2(C)[C@@]1(O)C(=O)CSc1nc2ccccc2n1C
f

Now consider C[C@@H]1C[C@H]2[C@@H]3CCC4=CC(=O)C=C[C@]4(C)[C@H]3[C@@H](O)C[C@]2(C)[C@@]1(O)C(=O)CSc1nc2cccnc2s1 .
t

Now consider C[C@@H]1C[C@H]2[C@@H]3CCC4=CC(=O)C=C[C@]4(C)[C@H]3[C@@H](O)C[C@]2(C)[C@@]1(O)C(=O)CSc1nc2ccccc2s1 .
t

Now consider Cn1c(SCC(=O)[C@@]2(O)CC[C@H]3[C@@H]4CCC5=CC(=O)C=C[C@]5(C)[C@H]4[C@@H](O)C[C@@]32C)nc2ccccc21 .
f

Now consider CCn1c(SCC(=O)[C@@]2(O)CC[C@H]3[C@@H]4CCC5=CC(=O)C=C[C@]5(C)[C@H]4[C@@H](O)C[C@@]32C)nc2ccccc21 .
t

Now consider C[C@]12C=CC(=O)C=C1CC[C@@H]1[C@@H]2[C@@H](O)C[C@@]2(C)[C@H]1CC[C@]2(O)C(=O)CO .
t

Now consider C[C@]12C=CC(=O)C=C1CC[C@@H]1[C@@H]2[C@@H](O)C[C@@]2(C)[C@H]1CC[C@]2(O)C(=O)CSc1nc(-c2ccccc2)cs1 .
t
